# System: KRAS patient-derived spheroids with HUVEC/MSC, viability
# procedure summary: Anticancer human tumor 323965-272-R-J2-PDC patient-derived pancreatic carcinoma cell line growth inhibition [KRAS2]
# condition: second compound 10 µM; first compound 0.0316 µM; stronger effect = lower value
Assign labels as follows, please: T for viability, T/C below 30%; F for viability, T/C equal to or exceeding 30%.

1. Cn1ncnc1[C@H]1c2n[nH]c(=O)c3cc(F)cc(c23)N[C@@H]1c1ccc(F)cc1 + CC1OCC2(CCN(c3cnc(Sc4ccnc(N)c4Cl)c(N)n3)CC2)C1N ... T
2. CC1(C)CCC(CN2CCN(c3ccc(C(=O)NS(=O)(=O)c4ccc(NCC5CCOCC5)c([N+](=O)[O-])c4)c(Oc4cnc5[nH]ccc5c4)c3)CC2)=C(c2ccc(Cl)cc2)C1 + CC1OCC2(CCN(c3cnc(Sc4ccnc(N)c4Cl)c(N)n3)CC2)C1N ... T
3. CCN1CCN(Cc2ccc(Nc3ncc(F)c(-c4cc(F)c5nc(C)n(C(C)C)c5c4)n3)nc2)CC1 + C=CC(=O)N1CCN(c2nc(=O)n(-c3c(C)ccnc3C(C)C)c3nc(-c4c(O)cccc4F)c(F)cc23)C(C)C1 ... F
4. CN(C)C/C=C/C(=O)Nc1cc2c(Nc3ccc(F)c(Cl)c3)ncnc2cc1O[C@H]1CCOC1 + CC1OCC2(CCN(c3cnc(Sc4ccnc(N)c4Cl)c(N)n3)CC2)C1N ... F
5. COC(=O)c1ccc2c(C(=Nc3ccc(N(C)C(=O)CN4CCN(C)CC4)cc3)c3ccccc3)c(O)[nH]c2c1 + CNCc1ccccc1-c1csc(C(C)Nc2nc(C)nc3cc(OC)c(OC)cc23)c1 ... T
6. CC(=O)Nc1cccc(-n2c(=O)n(C3CC3)c(=O)c3c(Nc4ccc(I)cc4F)n(C)c(=O)c(C)c32)c1 + CNCc1ccccc1-c1csc(C(C)Nc2nc(C)nc3cc(OC)c(OC)cc23)c1 ... T

Request: I'd appreciate it if you could check whether CC(=O)Nc1cccc(-n2c(=O)n(C3CC3)c(=O)c3c(Nc4ccc(I)cc4F)n(C)c(=O)c(C)c32)c1 + C=CC(=O)N1CCN(c2nc(=O)n(-c3c(C)ccnc3C(C)C)c3nc(-c4c(O)cccc4F)c(F)cc23)C(C)C1 has viability, T/C smaller than 30%.
Response: T

Request: I'd appreciate it if you could check whether O=C(c1cc(Cc2n[nH]c(=O)c3ccccc23)ccc1F)N1CCN(C(=O)C2CC2)CC1 + CNCc1ccccc1-c1csc(C(C)Nc2nc(C)nc3cc(OC)c(OC)cc23)c1 has viability, T/C smaller than 30%.
Response: T

Request: I'd appreciate it if you could check whether CC(=O)Nc1cccc(-n2c(=O)n(C3CC3)c(=O)c3c(Nc4ccc(I)cc4F)n(C)c(=O)c(C)c32)c1 + COc1cc2nc(C)nc(NC(C)c3cc(N)cc(C(F)(F)F)c3)c2cc1OC1CCOC1 has viability, T/C smaller than 30%.
Response: T

Request: I'd appreciate it if you could check whether CCNC(=O)CC1N=C(c2ccc(Cl)cc2)c2cc(OC)ccc2-n2c(C)nnc21 (stereo not given) + C=CC(=O)N1CCN(c2nc(=O)n(-c3c(C)ccnc3C(C)C)c3nc(-c4c(O)cccc4F)c(F)cc23)C(C)C1 has viability, T/C smaller than 30%.
Response: F

Request: I'd appreciate it if you could check whether CCNC(=O)CC1N=C(c2ccc(Cl)cc2)c2cc(OC)ccc2-n2c(C)nnc21 (stereo not given) + CC1OCC2(CCN(c3cnc(Sc4ccnc(N)c4Cl)c(N)n3)CC2)C1N has viability, T/C smaller than 30%.
Response: T

###

# Lookup of reported viability, T/C keyed by entry
# Test system: KRAS patient-derived spheroids with HUVEC/MSC, viability
# procedure summary: Anticancer human tumor 323965-272-R-J2-PDC cell line growth inhibition [KRAS2];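 further: spheroids exposed to agents for 7 days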;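 on viability, T/C: 100% = DMSO vehicle control viability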
# condition: second compound 3.16 µM; first compound 0.00316 µM; stronger effect = lower value
Give a bare numeral; the unit % is implied.

Request: Consider the molecule shown here: Cn1ncnc1[C@H]1c2n[nH]c(=O)c3cc(F)cc(c23)N[C@@H]1c1ccc(F)cc1 + COc1cc2nc(C)nc(NC(C)c3cc(N)cc(C(F)(F)F)c3)c2cc1OC1CCOC1 What is its recorded viability, T/C?
Response: 69.6

###

# Lookup of reported pIC50 keyed by entry
# Tested on: KRAS patient-derived spheroids with HUVEC/MSC, viability
# procedure summary: Anticancer human tumor 323965-272-R-J2-PDC cell line growth inhibition [KRAS2];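 further: spheroids exposed to agents for 7 days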
# condition: curve of first compound; second compound 1 µM
pIC50: −log10 of the molar value.

1. CC(=O)Nc1cccc(-n2c(=O)n(C3CC3)c(=O)c3c(Nc4ccc(I)cc4F)n(C)c(=O)c(C)c32)c1 + CC1OCC2(CCN(c3cnc(Sc4ccnc(N)c4Cl)c(N)n3)CC2)C1N ... > 10.00
2. CC(C)n1nc(-c2ccc3oc(N)nc3c2)c2c(N)ncnc21 + CC1OCC2(CCN(c3cnc(Sc4ccnc(N)c4Cl)c(N)n3)CC2)C1N ... > 9.50
3. CC(=O)OC12COC1CC(O)C1(C)C(=O)C(O)C3=C(C)C(OC(=O)C(O)C(NC(=O)OC(C)(C)C)c4ccccc4)CC(O)(C(OC(=O)c4ccccc4)C21)C3(C)C (stereo not given) + CNCc1ccccc1-c1csc(C(C)Nc2nc(C)nc3cc(OC)c(OC)cc23)c1 ... > 8.00
4. CN(C)C/C=C/C(=O)Nc1cc2c(Nc3ccc(F)c(Cl)c3)ncnc2cc1O[C@H]1CCOC1 + COc1cc2nc(C)nc(NC(C)c3cc(N)cc(C(F)(F)F)c3)c2cc1OC1CCOC1 ... < 7.00
5. CC(=O)Nc1cccc(-n2c(=O)n(C3CC3)c(=O)c3c(Nc4ccc(I)cc4F)n(C)c(=O)c(C)c32)c1 + CNCc1ccccc1-c1csc(C(C)Nc2nc(C)nc3cc(OC)c(OC)cc23)c1 ... 8.30

Request: Lab note: need pIC50 for COc1cc(Nc2ncc3c(n2)-c2ccc(Cl)cc2C(c2c(F)cccc2OC)=NC3)ccc1C(=O)O + C=CC(=O)N1CCN(c2nc(=O)n(-c3c(C)ccnc3C(C)C)c3nc(-c4c(O)cccc4F)c(F)cc23)C(C)C1 on KRAS patient-derived spheroids with HUVEC/MSC, viability, anyone have it?
Response: > 7.50

Request: Lab note: need pIC50 for Cn1nccc1Nc1nccc(-c2cc3c(s2)C(C)(C)N(CCN2CCOCC2)C3=O)n1 + CC1OCC2(CCN(c3cnc(Sc4ccnc(N)c4Cl)c(N)n3)CC2)C1N on KRAS patient-derived spheroids with HUVEC/MSC, viability, anyone have it?
Response: > 7.50

###

# System: KRAS patient-derived spheroids with HUVEC/MSC, viability
# procedure summary: Anticancer human tumor 323965-272-R-J2-PDC cell line growth inhibition [KRAS2];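 further: spheroids exposed to agents for 7 days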;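 on viability, T/C: 100% = DMSO vehicle control viability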
# condition: second compound 1 µM; first compound 0.0316 µM; stronger effect = lower value
Assign labels as follows, please: True for viability, T/C below 60%; False for viability, T/C equal to or exceeding 60%.

// known answers, use as guide
1. COC(=O)c1ccc2c(C(=Nc3ccc(N(C)C(=O)CN4CCN(C)CC4)cc3)c3ccccc3)c(O)[nH]c2c1 + C=CC(=O)N1CCN(c2nc(=O)n(-c3c(C)ccnc3C(C)C)c3nc(-c4c(O)cccc4F)c(F)cc23)C(C)C1 ... True
2. COc1cc(Nc2ncc3c(n2)-c2ccc(Cl)cc2C(c2c(F)cccc2OC)=NC3)ccc1C(=O)O + COc1cc2nc(C)nc(NC(C)c3cc(N)cc(C(F)(F)F)c3)c2cc1OC1CCOC1 ... False
3. CC(C)NCC(C(=O)N1CCN(c2ncnc3c2C(C)CC3O)CC1)c1ccc(Cl)cc1 (stereo not given) + CC1OCC2(CCN(c3cnc(Sc4ccnc(N)c4Cl)c(N)n3)CC2)C1N ... True
4. CC1COCCN1c1cc(-c2ccnn2C)c2ccnc(-c3ccn[nH]3)c2n1 (stereo not given) + C=CC(=O)N1CCN(c2nc(OCC3CCCN3C)nc3c2CCN(c2cccc4cccc(C)c24)C3)CC1CC#N ... True
5. CC1(C)CCC(CN2CCN(c3ccc(C(=O)NS(=O)(=O)c4ccc(NCC5CCOCC5)c([N+](=O)[O-])c4)c(Oc4cnc5[nH]ccc5c4)c3)CC2)=C(c2ccc(Cl)cc2)C1 + COc1cc2nc(C)nc(NC(C)c3cc(N)cc(C(F)(F)F)c3)c2cc1OC1CCOC1 ... False

Request: I'd appreciate it if you could check whether CC(=O)Nc1cccc(-n2c(=O)n(C3CC3)c(=O)c3c(Nc4ccc(I)cc4F)n(C)c(=O)c(C)c32)c1 + C=CC(=O)N1CCN(c2nc(OCC3CCCN3C)nc3c2CCN(c2cccc4cccc(C)c24)C3)CC1CC#N has viability, T/C smaller than 60%.
Response: True

Request: I'd appreciate it if you could check whether CC(=O)Nc1cccc(-n2c(=O)n(C3CC3)c(=O)c3c(Nc4ccc(I)cc4F)n(C)c(=O)c(C)c32)c1 + CC1OCC2(CCN(c3cnc(Sc4ccnc(N)c4Cl)c(N)n3)CC2)C1N has viability, T/C smaller than 60%.
Response: True

Request: I'd appreciate it if you could check whether CC(=O)Nc1cccc(-n2c(=O)n(C3CC3)c(=O)c3c(Nc4ccc(I)cc4F)n(C)c(=O)c(C)c32)c1 + COc1cc2nc(C)nc(NC(C)c3cc(N)cc(C(F)(F)F)c3)c2cc1OC1CCOC1 has viability, T/C smaller than 60%.
Response: True

Request: I'd appreciate it if you could check whether O=C(c1cc(Cc2n[nH]c(=O)c3ccccc23)ccc1F)N1CCN(C(=O)C2CC2)CC1 + CC1OCC2(CCN(c3cnc(Sc4ccnc(N)c4Cl)c(N)n3)CC2)C1N has viability, T/C smaller than 60%.
Response: False

Request: I'd appreciate it if you could check whether COc1cc(Nc2ncc3c(n2)-c2ccc(Cl)cc2C(c2c(F)cccc2OC)=NC3)ccc1C(=O)O + C=CC(=O)N1CCN(c2nc(OCC3CCCN3C)nc3c2CCN(c2cccc4cccc(C)c24)C3)CC1CC#N has viability, T/C smaller than 60%.
Response: True

Request: I'd appreciate it if you could check whether Cn1nccc1Nc1nccc(-c2cc3c(s2)C(C)(C)N(CCN2CCOCC2)C3=O)n1 + CNCc1ccccc1-c1csc(C(C)Nc2nc(C)nc3cc(OC)c(OC)cc23)c1 has viability, T/C smaller than 60%.
Response: False

Request: I'd appreciate it if you could check whether CC(C)n1nc(-c2ccc3oc(N)nc3c2)c2c(N)ncnc21 + C=CC(=O)N1CCN(c2nc(OCC3CCCN3C)nc3c2CCN(c2cccc4cccc(C)c24)C3)CC1CC#N has viability, T/C smaller than 60%.
Response: True

Request: I'd appreciate it if you could check whether CCN1CCN(Cc2ccc(Nc3ncc(F)c(-c4cc(F)c5nc(C)n(C(C)C)c5c4)n3)nc2)CC1 + C=CC(=O)N1CCN(c2nc(OCC3CCCN3C)nc3c2CCN(c2cccc4cccc(C)c24)C3)CC1CC#N has viability, T/C smaller than 60%.
Response: True

Request: I'd appreciate it if you could check whether CC(=O)OC12COC1CC(O)C1(C)C(=O)C(O)C3=C(C)C(OC(=O)C(O)C(NC(=O)OC(C)(C)C)c4ccccc4)CC(O)(C(OC(=O)c4ccccc4)C21)C3(C)C (stereo not given) + COc1cc2nc(C)nc(NC(C)c3cc(N)cc(C(F)(F)F)c3)c2cc1OC1CCOC1 has viability, T/C smaller than 60%.
Response: True

Request: I'd appreciate it if you could check whether CC(C)NCC(C(=O)N1CCN(c2ncnc3c2C(C)CC3O)CC1)c1ccc(Cl)cc1 (stereo not given) + C=CC(=O)N1CCN(c2nc(OCC3CCCN3C)nc3c2CCN(c2cccc4cccc(C)c24)C3)CC1CC#N has viability, T/C smaller than 60%.
Response: True

Request: I'd appreciate it if you could check whether CCNC(=O)CC1N=C(c2ccc(Cl)cc2)c2cc(OC)ccc2-n2c(C)nnc21 (stereo not given) + CNCc1ccccc1-c1csc(C(C)Nc2nc(C)nc3cc(OC)c(OC)cc23)c1 has viability, T/C smaller than 60%.
Response: False

Request: I'd appreciate it if you could check whether CC1(C)CCC(CN2CCN(c3ccc(C(=O)NS(=O)(=O)c4ccc(NCC5CCOCC5)c([N+](=O)[O-])c4)c(Oc4cnc5[nH]ccc5c4)c3)CC2)=C(c2ccc(Cl)cc2)C1 + C=CC(=O)N1CCN(c2nc(OCC3CCCN3C)nc3c2CCN(c2cccc4cccc(C)c24)C3)CC1CC#N has viability, T/C smaller than 60%.
Response: False

Request: I'd appreciate it if you could check whether CCN1CCN(Cc2ccc(Nc3ncc(F)c(-c4cc(F)c5nc(C)n(C(C)C)c5c4)n3)nc2)CC1 + COc1cc2nc(C)nc(NC(C)c3cc(N)cc(C(F)(F)F)c3)c2cc1OC1CCOC1 has viability, T/C smaller than 60%.
Response: True
